All figures here come from patent US9949945B2.

Target or system Brisbane H1N1 (A/Brisbane/59/07) neuraminidase (Influenza A virus, UniProt D5F1R0): recorded t1/2 (reac) listed per item.

Look over these answered cases.
| molecule | t1/2 (reac) |
| --- | --- |
| CC(=O)NC1C(N)C(F)C(F)(C(=O)O)OC1[C@H](O)[C@H](O)CO (stereo in doubt) | 256 117 46 49 153 min |
| CC(=O)NC1C(NC(=N)N)C(F)C(F)(C(=O)O)OC1[C@H](O)[C@H](O)CO (stereo in doubt) | 1380 460 690 363 1380 min |

For CC(=O)N[C@@H]1C(N)C(F)[C@](F)(C(=O)O)OC1[C@H](O)[C@H](O)CO (stereo partly shown) on Brisbane H1N1 (A/Brisbane/59/07) neuraminidase (Influenza A virus, UniProt D5F1R0), measured t1/2 (reac) was 6900 3450 6900 2300 >6900 min

The molecule CC(=O)N[C@@H]1C(NC(=N)N)C(F)[C@](F)(C(=O)O)OC1[C@H](O)[C@H](O)CO (stereo partly shown) , when measured on Brisbane H1N1 (A/Brisbane/59/07) neuraminidase (Influenza A virus, UniProt D5F1R0), yielded t1/2 (reac) of >6900 >6900 >6900 >6900 >6900 min
